B1: CPEB3 Ribozyme (parent)
chain: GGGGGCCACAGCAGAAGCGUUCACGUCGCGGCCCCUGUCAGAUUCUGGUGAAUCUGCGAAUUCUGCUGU

# Variants of: B1
# Procedure Text: self-cleavage, relative activity (ratio to wild type); higher = more cleavage; co-transcriptional
Rule: Met for self-cleavage not less than 0.5, Not met for anything less.

These recorded examples may help you get a feel for the data.
Alteration	Class
G11U U26C	Met
C32A G50C	Met

## Input Item C6U C34A with self-cleavage of 0.5 or above?
## Output Not met

## Input Item U36G C66U with self-cleavage of 0.5 or above?
## Output Not met
